target: integrin αIIbβ3 (on CHO-αIIbβ3 cells); experiment: cell adhesion inhibition: CHO-αIIbβ3 cells on coated fibrinogen
Below, each entry is listed with its recorded IC50.
Output spec: scalar in µM, unitless text.

AKGDWN (from UniProt P30403 408-475) (ligand; other documents disagree on this pair)	0.069

// below: IC50 requested for another substance
Lookup: // query IC50 value for entry PRPDDL (from UniProt P30403 408-475) (ligand; other documents disagree on this pair)
Found: 13.6
